Molecular target: T1, human plasma kallikrein (human, UniProt P03952 20-390; P03952 391-638)
T1 construct: also called pKal; human pKal
T1 sequence (P03952 20-390, chain 1 of 2): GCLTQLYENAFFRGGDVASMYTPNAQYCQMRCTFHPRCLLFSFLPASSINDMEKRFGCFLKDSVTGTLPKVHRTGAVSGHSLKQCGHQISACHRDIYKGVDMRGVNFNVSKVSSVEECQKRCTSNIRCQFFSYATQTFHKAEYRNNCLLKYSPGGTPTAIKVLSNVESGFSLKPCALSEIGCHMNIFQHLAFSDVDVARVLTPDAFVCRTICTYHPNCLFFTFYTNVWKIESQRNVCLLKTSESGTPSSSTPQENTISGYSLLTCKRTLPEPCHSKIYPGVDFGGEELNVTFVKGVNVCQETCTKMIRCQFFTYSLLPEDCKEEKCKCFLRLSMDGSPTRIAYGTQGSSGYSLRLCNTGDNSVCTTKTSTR
T1 sequence (P03952 391-638, chain 2 of 2): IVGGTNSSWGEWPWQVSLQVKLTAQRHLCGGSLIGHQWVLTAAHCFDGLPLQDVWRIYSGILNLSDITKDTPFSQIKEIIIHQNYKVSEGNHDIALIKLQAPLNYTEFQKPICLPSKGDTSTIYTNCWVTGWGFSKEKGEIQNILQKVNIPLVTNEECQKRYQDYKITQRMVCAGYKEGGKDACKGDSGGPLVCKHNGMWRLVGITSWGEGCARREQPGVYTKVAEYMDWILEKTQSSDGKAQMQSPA
Assay: ELISA; signal on biotinylated plasma kallikrein divided by signal on streptavidin background
Form field: ELISA (T/B) (one value per entry).
Reply numerically in T/B ratio, unit not repeated.

binder: M10-F10 (antibody, V domains shown) VH: EVQLLESGGGLVQPGGSLRLSCAASGFTFSFYNMNWVRQAPGKSLEWVSSISPSGGETNYADSVKGRFTISRDNSKNTLYLQMNSLRAEDTAVYYCARGGGAYRNNWWGGFDIWGLGTMVTVSS VL: DIQMTQSPSSLSASVGDRVTITCRASQSISVYLNWYQHKPGKAPKLLIYGASNLQFGVPSRFSGSGYGTDFTLTISSLQPEDFATYHCQQTFSLFTFGGGTKVEIK
readout: ELISA (T/B)
value measured: 39.2

Consider now this further binder.
Task: Would you kindly share the measured ELISA (T/B) for M41-A11 (antibody, V domains shown) VH: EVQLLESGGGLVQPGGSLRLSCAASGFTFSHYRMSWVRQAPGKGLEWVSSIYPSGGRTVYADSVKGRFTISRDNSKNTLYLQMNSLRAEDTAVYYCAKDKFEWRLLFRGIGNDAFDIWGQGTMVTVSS VL: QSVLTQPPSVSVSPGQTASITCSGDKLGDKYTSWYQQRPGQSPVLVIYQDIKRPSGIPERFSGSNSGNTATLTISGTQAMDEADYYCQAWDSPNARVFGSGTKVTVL ?
Result: 28
